Test: Stability of analytes in rat plasma QC samples under processing and storage conditions
Format: in vitro ADME
Settings: rat plasma, spiked 2 ng/mL, n = 6
readout name: Measured concentration, three freeze-thaw

{"compound": "COc1cc(-c2oc3cc(O)cc(O)c3c(=O)c2O[C@@H]2O[C@H](CO)[C@@H](O)[C@H](O)[C@H]2O)ccc1O [Isorhamnetin-3-O-glucoside]", "reported": "2.0 ± 0.1 ng/mL"}
{"compound": "C[C@@H]1O[C@@H](Oc2c(-c3ccc(O)c(O)c3)oc3cc(O)cc(O)c3c2=O)[C@H](O)[C@H](O)[C@H]1O [Quercitrin]", "reported": "2.3 ± 0.1 ng/mL"}
{"compound": "O=c1cc(-c2ccc(O)c(O)c2)oc2cc(O)cc(O)c12 [Luteolin]", "reported": "2.0 ± 0.1 ng/mL"}
{"compound": "O=c1c(O)c(-c2ccc(O)c(O)c2)oc2cc(O)cc(O)c12 [Quercetin]", "reported": "2.0 ± 0.1 ng/mL"}
{"compound": "O=c1cc(-c2ccc(O)cc2)oc2cc(O)cc(O)c12 [Apigenin]", "reported": "2.0 ± 0.1 ng/mL"}
{"compound": "O=C(/C=C/c1ccc(O)c(O)c1)O[C@@H]1C[C@](O)(C(=O)O)C[C@@H](O)[C@H]1O [Chlorogenic acid]", "reported": "2.1 ± 0.1 ng/mL"}
{"compound": "O=c1c(O[C@@H]2O[C@H](CO)[C@@H](O)[C@H](O)[C@H]2O)c(-c2ccc(O)cc2)oc2cc(O)cc(O)c12 [Astragalin]", "reported": "2.1 ± 0.1 ng/mL"}
{"compound": "O=c1c(O[C@@H]2O[C@H](CO)[C@H](O)[C@H](O)[C@H]2O)c(-c2ccc(O)c(O)c2)oc2cc(O)cc(O)c12 [Hyperoside]", "reported": "2.1 ± 0.1 ng/mL"}
{"compound": "O=C(/C=C/c1ccc(O)c(O)c1)O[C@H]1[C@H](O)C[C@](O)(C(=O)O)C[C@H]1O [Cryptochlorogenic acid]", "reported": "2.0 ± 0.1 ng/mL"}
{"compound": "O=C(O)/C=C/c1ccc(O)c(O)c1 [Caffeic acid]", "reported": "2.1 ± 0.1 ng/mL"}
{"compound": "O=c1c(O)c(-c2ccc(O)cc2)oc2cc(O)cc(O)c12 [Kaempferol]", "reported": "2.0 ± 0.2 ng/mL"}

###

Experiment: Stability of analytes in rat plasma QC samples under processing and storage conditions
Type: in vitro ADME
Details: treated rat plasma sample, spiked 2 ng/mL, n = 6
Listed next: entries and their corresponding Measured concentration, autosampler for 12h.
readout name: Measured concentration, autosampler for 12h (ng/mL)

{"molecule": "COc1cc(-c2oc3cc(O)cc(O)c3c(=O)c2O[C@@H]2O[C@H](CO)[C@@H](O)[C@H](O)[C@H]2O)ccc1O [Isorhamnetin-3-O-glucoside]", "reported": 2.1}
{"molecule": "O=C(/C=C/c1ccc(O)c(O)c1)O[C@@H]1C[C@](O)(C(=O)O)C[C@@H](O)[C@H]1O", "reported": 2.1}
{"molecule": "O=c1c(O)c(-c2ccc(O)cc2)oc2cc(O)cc(O)c12", "reported": 2.1}
{"molecule": "O=c1c(O)c(-c2ccc(O)c(O)c2)oc2cc(O)cc(O)c12", "reported": 2.3}
{"molecule": "O=c1c(O[C@@H]2O[C@H](CO)[C@H](O)[C@H](O)[C@H]2O)c(-c2ccc(O)c(O)c2)oc2cc(O)cc(O)c12 [Hyperoside]", "reported": 1.8}
{"molecule": "O=c1cc(-c2ccc(O)cc2)oc2cc(O)cc(O)c12", "reported": 2.1}
{"molecule": "O=C(/C=C/c1ccc(O)c(O)c1)O[C@H]1[C@H](O)C[C@](O)(C(=O)O)C[C@H]1O", "reported": 2.1}
{"molecule": "O=c1cc(-c2ccc(O)c(O)c2)oc2cc(O)cc(O)c12", "reported": 2.1}
{"molecule": "O=C(O)/C=C/c1ccc(O)c(O)c1", "reported": 2.2}
{"molecule": "O=c1c(O[C@@H]2O[C@H](CO)[C@@H](O)[C@H](O)[C@H]2O)c(-c2ccc(O)cc2)oc2cc(O)cc(O)c12", "reported": 2.1}
{"molecule": "C[C@@H]1O[C@@H](Oc2c(-c3ccc(O)c(O)c3)oc3cc(O)cc(O)c3c2=O)[C@H](O)[C@H](O)[C@H]1O", "reported": 2.1}
